B1: LINE1-full (parent)
chain: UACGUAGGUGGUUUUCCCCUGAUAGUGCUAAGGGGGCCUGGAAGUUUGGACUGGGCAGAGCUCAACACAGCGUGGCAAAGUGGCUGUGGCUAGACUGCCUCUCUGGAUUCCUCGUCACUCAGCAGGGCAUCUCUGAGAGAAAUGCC

- Variants of: B1
- assayOverview: self-cleavage, relative activity (ratio to wild type); higher = more cleavage; in vitro, sequencing; the parent is a self-cleaving ribozyme
measuredMetric: self-cleavage
Answer with a bare number; do not write a unit.

// below: answered variants
G72U A107C : 2.15
U13A A67U : 0.07
U26C U85A : 0.11
C63A U87A : 0.04
C38U A142U : 0.32

Problem: Fill in: self-cleavage of G7A U143C is ___
Solution: 1.29

Problem: Now give it for A31G U96A too.
Solution: 0.11

Problem: Another: U12G U112C
Solution: 1.01

Problem: Also, G10C C146U please.
Solution: 1.91

Problem: Do the same for U20A U23C please
Solution: 0.83

Problem: Let us now turn to G34C A138G
Solution: 2.05

Problem: Query U9C A121U next
Solution: 1.32
